# Tested on: SK-MEL-5
# assay.comment: NCI tumour cell line growth inhibition, 48 h
The source made the active and inactive calls. Rule as the data show it: active = GI50 up to about 1.1 µM and inactive = higher.
property.label: GI50

Solved entries:
compound: CC[C@H](C)C1=C(OC(C)=O)[N@+]2([O-])Oc3ccc(-c4c(O)c(O)c(-c5ccc(OC(C)=O)cc5)c(OC(C)=O)c4OC(C)=O)cc3O[C@]2([C@@H](C)CC)C(=O)N1O
GI50: 16.4 µM (inactive)

compound: CCN(CC)CC(C(C)=O)C(c1ccccc1)c1c(O)c2ccccc2oc1=O (centres undefined)
GI50: > 100 µM (inactive)

compound: Cc1cc(Cl)cc2c1NC(=O)C2=O.O=C(c1ccccc1)C(F)(F)F
GI50: 41.7 µM (inactive)

compound: CC(=O)c1sc2c(c1OC(=O)c1ccccc1)c(=O)n(-c1ccccc1)c(=S)n2-c1ccccc1
GI50: 5.62 µM (inactive)

compound: CCN(CC)CCNc1ccc([N+](=O)[O-])c2nc3ccccc3c(N)c12
GI50: 0.166 µM (active)

Input line: Notebook: pull reported GI50 for SK-MEL-5, entry COc1ccc(N2C(=O)C3c4[nH]c5ccccc5c4C4CC(C)CC(C)C4C3C2=O)cc1 (centres undefined)
Output line: > 100 µM (inactive)

Input line: Query `Cc1[nH]c(=O)nc(N/N=C/c2ccc(Cl)cc2)c1C(=O)Nc1ccc(Cl)cc1` next
Output line: 18 µM (inactive)

Input line: Query CC1(C)OCC([C@H]2O[C@@H](CC(=S)NCCCCCCCCCCCCNC(=S)C[C@H]3O[C@@H](C4COC(C)(C)O4)[C@H]4OC(C)(C)O[C@H]43)[C@H]3OC(C)(C)O[C@H]32)O1 (some centres undefined) next
Output line: 23.7 µM (inactive)

Input line: Query COc1ccc(C(O)(c2ccccc2)c2nccc3ccccc23)cc1 (centres undefined) next
Output line: 3.38 µM (inactive)

Input line: Query `COC(=O)[C@H]1COC(=O)N1` next
Output line: > 100 µM (inactive)
